# tgt: Rac-1 (Homo sapiens, UniProt P63000)
# test-name: Ras GTP binding domain inhibition assay (Cy3-GTP/Cy5-GTP competition)
# condition-notes: without SOS, read-out: Rac-1: % inh.
# Text: The following method was developed as specific assay for the following proteins: KRas wild type, KRas Q61H mutant, KRas G12C mutant, KRas G12D mutant, HRas wild type, Rac-1, and Rho-A. […] The small GTPases proteins: KRas wild type. KRas Q61H mutant, KRas G12C mutant, KRas G12D mutants, HRas wild type, Rac-1, and Rho-A were expressed as His-tagged proteins. In addition, the Guanosine nucleotide Exchange Factor (GEF) Sos protein (residues 556-1049) was expressed as a His-tagged protein. […]
measurement-label: inhibition at 20 µM

Worked examples follow.
COCC(C)Nc1nc(-c2nccn2C)nc2sc(-c3ccn(C)n3)c(-c3ccccc3)c12 (centres unmarked) [drawing 999] | 1 to 25%
Cc1c(-c2ccn(C)n2)sc2nc(-c3nccn3C)nc(NCCOC(=O)N(C)C)c12 [drawing 1053] | 76 to 100%
CN(Cc1ccccc1)C(=O)c1nc(-c2ccccn2)nc(O)c1O [drawing 934] | 51 to 75%
COc1cccc(Cn2ccnc2-c2nc(O)c3scc(-c4ccccn4)c3n2)c1 [drawing 985] | 76 to 100%
CO[C@H]1C[C@@H](Nc2nc(-c3nccn3C)nc3sc(C(=O)NC(C)C)c(-c4ccccc4)c23)C1 [drawing 1055] | 76 to 100%

Supply inhibition at 20 µM value. Item: COCCNc1nc(-c2cn(C)cn2)nc2sc(-c3ccccc3Cl)c(-c3ccc(OC)cc3)c12 [drawing 1008] 26 to 50%

Look up inhibition at 20 µM of CO[C@H]1C[C@H](Nc2nc(-c3nccn3C)nc3sc(-c4ccn(C)n4)c(-c4ccccc4)c23)C1 [drawing 1041] and report it. 51 to 75%

Could you please provide reported inhibition at 20 µM for COc1cccc(-c2sc3nc(-c4nccn4C)nc(NC4CCC(OC)C4)c3c2C)c1F (centres unmarked) [drawing 1028] ? Thanks! 51 to 75%
